Molecular target: T1, Monomeric monkey CD48-mmH (monkey)
T1 construct: Soluble monkey CD48 with a myc-myc-hexa-histidine C-terminal tag; the whole entry is the construct; also called mfCD48-mmH
T1 chain: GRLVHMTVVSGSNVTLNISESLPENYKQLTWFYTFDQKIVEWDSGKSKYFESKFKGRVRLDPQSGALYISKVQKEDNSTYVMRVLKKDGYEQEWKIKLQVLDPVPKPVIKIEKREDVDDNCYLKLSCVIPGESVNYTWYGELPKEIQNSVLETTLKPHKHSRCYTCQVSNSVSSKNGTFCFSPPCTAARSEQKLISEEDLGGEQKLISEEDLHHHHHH
Experiment: SPR (Biacore), antibody captured by anti-Fc, CD48 in solution, 37 C
Form field: T½ (one value per entry).

binder	T½ [min]
H4H1775P (antibody, human IgG4, V domains shown, Human IgG4 Fc (H4H)) VH: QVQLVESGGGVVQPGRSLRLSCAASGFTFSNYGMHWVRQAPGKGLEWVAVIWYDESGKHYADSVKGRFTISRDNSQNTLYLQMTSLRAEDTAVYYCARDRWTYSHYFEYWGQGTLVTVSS VL: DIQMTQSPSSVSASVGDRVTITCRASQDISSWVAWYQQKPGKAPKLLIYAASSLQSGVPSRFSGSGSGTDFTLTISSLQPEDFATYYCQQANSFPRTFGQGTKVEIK	90
H4H1763N (antibody, V domains shown, Human IgG4 Fc (H4H)) VH: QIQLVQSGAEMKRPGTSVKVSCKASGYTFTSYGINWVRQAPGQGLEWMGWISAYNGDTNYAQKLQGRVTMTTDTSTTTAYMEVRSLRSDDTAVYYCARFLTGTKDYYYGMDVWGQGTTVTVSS VL: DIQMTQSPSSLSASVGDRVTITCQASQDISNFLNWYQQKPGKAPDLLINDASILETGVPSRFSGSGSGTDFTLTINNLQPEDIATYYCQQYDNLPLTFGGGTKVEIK	9
H4H1713N (antibody, V domains shown, Human IgG4 Fc (H4H)) VH: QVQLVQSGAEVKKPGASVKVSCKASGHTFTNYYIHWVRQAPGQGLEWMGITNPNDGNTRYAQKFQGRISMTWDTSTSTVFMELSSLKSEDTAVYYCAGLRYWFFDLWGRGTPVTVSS VL: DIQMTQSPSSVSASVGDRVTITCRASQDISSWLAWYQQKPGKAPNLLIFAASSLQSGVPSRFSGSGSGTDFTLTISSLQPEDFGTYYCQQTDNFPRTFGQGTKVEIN	30
H4H1707N (antibody, V domains shown, Human IgG4 Fc (H4H)) VH: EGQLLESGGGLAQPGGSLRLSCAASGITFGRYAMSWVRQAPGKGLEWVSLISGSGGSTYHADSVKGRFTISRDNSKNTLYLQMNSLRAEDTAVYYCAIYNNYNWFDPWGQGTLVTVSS VL: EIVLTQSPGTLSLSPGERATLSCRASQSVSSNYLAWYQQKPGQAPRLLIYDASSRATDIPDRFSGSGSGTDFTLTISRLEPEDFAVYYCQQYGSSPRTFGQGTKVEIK	9
H4H1771P (antibody, human IgG4, V domains shown, Human IgG4 Fc (H4H)) VH: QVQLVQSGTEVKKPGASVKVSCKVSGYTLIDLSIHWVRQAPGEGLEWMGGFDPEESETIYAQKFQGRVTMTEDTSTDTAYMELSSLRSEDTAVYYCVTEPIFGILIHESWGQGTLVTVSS VL: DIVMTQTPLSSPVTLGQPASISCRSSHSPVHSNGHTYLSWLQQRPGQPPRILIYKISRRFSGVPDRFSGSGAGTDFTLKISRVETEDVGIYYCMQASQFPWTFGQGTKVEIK	13
H4H1779P (antibody, human IgG4, V domains shown, Human IgG4 Fc (H4H)) VH: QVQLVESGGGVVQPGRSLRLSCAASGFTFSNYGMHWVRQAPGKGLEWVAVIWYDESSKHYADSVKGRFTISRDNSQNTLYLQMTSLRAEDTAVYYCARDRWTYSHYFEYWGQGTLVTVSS VL: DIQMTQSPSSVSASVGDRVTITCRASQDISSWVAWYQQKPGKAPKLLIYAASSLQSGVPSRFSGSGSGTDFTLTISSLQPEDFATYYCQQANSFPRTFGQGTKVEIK	40
